Biological target: Gamma-aminobutyric acid receptor subunit alpha-1 (Homo sapiens)
Sequence (P14867 whole entry): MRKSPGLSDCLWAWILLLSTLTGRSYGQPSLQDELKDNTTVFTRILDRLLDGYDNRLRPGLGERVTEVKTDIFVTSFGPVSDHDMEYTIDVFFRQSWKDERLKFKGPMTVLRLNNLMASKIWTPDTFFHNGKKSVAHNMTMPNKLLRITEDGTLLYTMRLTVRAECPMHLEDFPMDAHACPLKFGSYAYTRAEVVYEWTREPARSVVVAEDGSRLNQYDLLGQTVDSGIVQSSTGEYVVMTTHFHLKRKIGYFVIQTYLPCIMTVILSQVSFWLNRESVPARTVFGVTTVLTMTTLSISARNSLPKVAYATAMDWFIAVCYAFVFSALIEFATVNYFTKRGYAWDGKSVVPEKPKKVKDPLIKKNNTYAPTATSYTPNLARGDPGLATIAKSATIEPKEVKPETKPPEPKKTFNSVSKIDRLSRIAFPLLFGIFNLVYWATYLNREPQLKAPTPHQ
Assay: Agonist activity at recombinant GABAA receptor subunit alpha-1 expressed in CHO cells at 3 uM by sensitive fluorometric read-out assay relative to midazolam
Type: functional, cell-based
Efficacy for assorted molecules

smiles-str | measurement-target | Efficacy
Fc1ccccc1COc1c2cnc3c(c2nn1-c1ccc(Cl)cc1)CCCC3 | Gamma-aminobutyric acid receptor subunit alpha-1 (Homo sapiens) | 31%

QUERY: Which Efficacy value belongs to CC1(C)CCc2ncc3c(OCc4ccccc4Cl)n(-c4ccc(Cl)cc4)nc3c2C1 ?
RESULT: 4%

QUERY: Try this molecule too: Clc1ccccc1COc1c2cnc3ccccc3c2nn1-c1ccc2c(c1)OCO2
RESULT: -15%

QUERY: Try this molecule too: Clc1ccc(-n2nc3c(cnc4ccc(-n5ccnc5)cc43)c2OCC2CC2)cc1
RESULT: 80%

QUERY: Try this molecule too: Clc1ccc(-n2nc3c4c(ncc3c2OCc2cccc(Cl)c2)CCCC4)cc1
RESULT: 38%

QUERY: Try this molecule too: Clc1ccc(-n2nc3c(cnc4ccccc43)c2OCC2CC2)cc1
RESULT: 37%

###

Target: Gamma-aminobutyric acid receptor subunit alpha-1 (Homo sapiens)
Test: Displacement of [3H]flumazenil from GABAA receptor subunit alpha-1 expressed in CHO cells
Assay type: cell-based
metric: IC50 (nM)
Response body: numeric value in nM, unit text excluded.

In the examples that follow, each entry is paired with its recorded IC50.
smiles-str | result-unit | IC50
Clc1ccc(-n2nc3c4c(ncc3c2OCc2ccccc2Cl)CCCC4)cc1 | nM | 46
Fc1ccc(COc2c3cnc4c(c3nn2-c2ccc(Cl)cc2)CCCC4)cc1 | nM | 50

We now examine a further compound.
QUERY: Which IC50 value belongs to Clc1ccc(-n2nc3c(cnc4ccccc43)c2OCc2ccccc2Cl)cc1 ?
RESULT: 64

###

IC50 for assorted compounds
Biological target: Gamma-aminobutyric acid receptor subunit alpha-2 (Homo sapiens, UniProt P47869)
Sequence (P47869 whole entry): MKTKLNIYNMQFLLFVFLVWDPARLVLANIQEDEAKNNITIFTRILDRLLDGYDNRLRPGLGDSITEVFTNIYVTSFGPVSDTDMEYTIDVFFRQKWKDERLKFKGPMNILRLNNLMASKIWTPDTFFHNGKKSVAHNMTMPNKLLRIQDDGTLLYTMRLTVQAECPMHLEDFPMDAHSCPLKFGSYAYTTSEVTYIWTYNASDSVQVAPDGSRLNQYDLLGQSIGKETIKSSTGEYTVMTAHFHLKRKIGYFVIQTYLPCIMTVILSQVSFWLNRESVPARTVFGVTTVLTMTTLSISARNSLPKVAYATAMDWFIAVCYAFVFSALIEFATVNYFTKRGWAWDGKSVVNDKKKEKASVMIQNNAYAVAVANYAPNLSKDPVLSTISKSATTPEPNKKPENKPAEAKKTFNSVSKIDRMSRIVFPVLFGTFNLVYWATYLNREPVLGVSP
Experiment: Displacement of [3H]flumazenil from GABAA receptor subunit alpha-2 expressed in CHO cells

In the examples that follow, each entry is paired with its recorded IC50.
smiles-str | measurement-target | metric | reported-measurement
Fc1ccccc1-n1nc2c(cnc3ccccc32)c1OCc1ccccc1Cl | Gamma-aminobutyric acid receptor subunit alpha-2 (Homo sapiens, UniProt P47869) | IC50 | 2 nM
CC1(C)CCc2ncc3c(OCc4ccccc4Cl)n(-c4ccc(Cl)cc4)nc3c2C1 | Gamma-aminobutyric acid receptor subunit alpha-2 (Homo sapiens, UniProt P47869) | IC50 | 213 nM
Clc1ccc(-n2nc3c4c(ncc3c2OCC2CC2)CCCC4)cc1 | Gamma-aminobutyric acid receptor subunit alpha-2 (Homo sapiens, UniProt P47869) | IC50 | 185 nM
Clc1ccc(COc2c3cnc4c(c3nn2-c2ccc(Cl)cc2)CCCC4)cc1 | Gamma-aminobutyric acid receptor subunit alpha-2 (Homo sapiens, UniProt P47869) | IC50 | 177 nM

We now examine a further compound.
QUERY: Which IC50 value belongs to Clc1ccc(-n2nc3c4c(ncc3c2Oc2ccccc2Cl)CCCC4)cc1 ?
RESULT: > 3000 nM

Hello, the source for this data is ChEMBL document CHEMBL1681636, in case you need it.
